test: compound fluorescence in toxin protease inhibitor counterscreen, primary screen, artefact control for toxin protease inhibitor project, biochemical, multiplex microsphere, HTS (AID 624483); conditions: compound autofluorescence counterscreen, microsphere flow cytometry
About 11,000 (3.1%) of roughly 360,000 compounds were called active. Not shown: some 2% with an inconclusive outcome. No stated cut-off is given here; in the data, active means fluorescence intensity above about 16000; inconclusive means no clear call, values can overlap the other calls; inactive means below that. This is one part of a sample in which actives are shown more often than they occur.
The reply should name one outcome from active, inactive

Before answering, review these 5 worked examples.
MOLECULE: CC1(C(=O)NCc2cccc3ccccc23)CCN1Cc1ccc(-c2ccccc2)o1 (stereo not given)
CLASS LABEL: inactive
--
MOLECULE: Cc1ccc(NC(=O)NC(=O)c2ccccc2)cc1F
CLASS LABEL: inactive
--
MOLECULE: Cc1ccc(CN(CC(=O)NC2CCCCC2)C(=O)c2csnn2)cc1
CLASS LABEL: inactive
--
MOLECULE: COc1ccc(Cn2c(=O)oc3ccccc32)cc1
CLASS LABEL: inactive
--
MOLECULE: CCCCN(C=O)c1c(CC)nc2c(OCCC3CCCCC3)cccn12
CLASS LABEL: inactive

For Cc1ccc(-c2cnc(C(O)c3cccc(C)c3C)[nH]2)cc1 (stereo not given) , what call appears in the results of this test?
inactive

For C=CCc1cccc2cc(C(=O)NC3CCCC3)c(=O)oc12 , what call appears in the results of this test?
inactive

For Cc1cc(OC(C)C(=O)NC2CC(C)(C)NC(C)(C)C2)c2c(C)cc(=O)oc2c1 (stereo not given) , what call appears in the results of this test?
inactive

For Cc1ccc(C(=O)Nc2ncccc2C)cc1S(=O)(=O)N1CCOCC1 , what call appears in the results of this test?
inactive

For O=c1c2ccccc2ncn1/N=C/c1ccccc1 , what call appears in the results of this test?
inactive

For NS(=O)(=O)c1ccc(Nc2nc(-c3ccccc3)cs2)cc1 , what call appears in the results of this test?
active
